Hello, the source for this data is ChEMBL document CHEMBL1201862, in case you need it.

Test system: SF-268
Test: NCI tumour cell line growth inhibition, 48 h
Calls of active or inactive are those of the source. Rule as the data show it: active = GI50 up to about 1.1 µM and inactive = higher.
Give your call using only these classes: active, inactive

# count of solved cases: 5
compound	classification
O=C(O)CNCc1c2ccccc2[n+]([O-])c2ccccc12	inactive
Cc1ccccc1Nc1nc(NNC(=O)Cc2ccccc2)nc(NNC(=O)c2ccncc2)n1	inactive
CN1C2CC(=O)CC1[C@H](O)[C@@H]2O	inactive
CN(C)CCn1c(=O)c2ccc3c4c(nn3CCN(C)C)c3ccccc3n(c1=O)c24	active
Cc1ccc2nc(NC(=O)C(=O)CC(=O)c3cccc4ccccc34)sc2c1	inactive

I would be grateful if you could indicate the recorded call for O=C(O)CCSC(=O)Nc1ccc(/N=N/c2ccccc2)cc1 .
inactive

I would be grateful if you could indicate the recorded call for COC(=O)CC(C(C(=O)OC)C(=O)OC)N1C(=O)OC(c2ccccc2)C1c1ccccc1 (centres undefined) .
inactive

I would be grateful if you could indicate the recorded call for Cc1c(C(=O)CSc2nc3cc([N+](=O)[O-])ccc3[nH]2)c(=O)n(-c2ccccc2)n1C .
inactive

I would be grateful if you could indicate the recorded call for N=c1oc2c(O)c(O)ccc2cc1C(N)=O .
inactive

I would be grateful if you could indicate the recorded call for CN1CCN(C)C12C=CC=CC21CC1 .
inactive

I would be grateful if you could indicate the recorded call for COc1cc(/C=C2\CC3C4CC[C@H]5C[C@@H](O)CC[C@]5(C)C4CC[C@]3(C)\C2=N\O)cc(OC)c1OC (some centres undefined) .
inactive

* * *

System: RXF 393
Assay: NCI tumour cell line growth inhibition, 48 h
Activity calls are given as the source filed them. No stated cut-off is given here; in the data, active = GI50 up to about 1.1 µM and inactive = higher.
Listing of entries alongside the reported GI50.

> print(dat)
                                   compound       value.observed
1     Cc1cn([C@@H]2C[C@@H]2CO)c(=O)[nH]c1=O  > 100 µM (inactive)
2  O=c1c2ncn(C3CC(O)C(CO)O3)c2nnn1Cc1ccccc1[N+](=O)[O-] (stereo not drawn)   17.8 µM (inactive)
3  Cc1cc(C)nc(NS(=O)(=O)c2ccc(Nc3c4ccccc4nc4c(C(=O)N5CCN(CCO)CC5)cccc34)cc2)n1  > 100 µM (inactive)

Give recorded GI50. O=C1OC(c2ccccc2)=N/C1=C\c1ccc(Br)cc1
> 100 µM (inactive)

Give recorded GI50. Cc1cc2c(=Cc3ccc(N(C)C)cc3)c3ccccc3n2[n+]1C
2.09 µM (inactive)

* * *

Test system: HL-60
Assay: NCI tumour cell line growth inhibition, 48 h
Activity calls are given as the source filed them. Cut-off read from the data, not from the text of the source: active = GI50 up to about 1.1 µM and inactive = higher.
Give your call using only these classes: active, inactive

# count of solved cases: 5
> print(dat)
                                   molecule  classification
1  O=C(CC1C(=O)Nc2ccccc2S1(=O)=O)Nc1cccc(Cl)c1 (centres undefined)        inactive
2      O=C1OC(c2ccccc2)=N/C1=C\c1ccc(Br)cc1        inactive
3  CCOc1ccc(O)cc1[P+](c1ccccc1)(c1ccccc1)c1ccccc1          active
4  COc1ccc2[nH]cc(CN3CCC(CO)(c4ccccc4)CC3)c2c1        inactive
5      CCOC(=O)C1=C(O)C(=O)c2cc(OC)ccc2C1=O        inactive

I would be grateful if you could indicate the recorded call for C=CCNC(=S)N/C=C(\C(=O)OCC)C(=O)C(=O)OCC .
inactive

I would be grateful if you could indicate the recorded call for CN(C)CCn1c(=O)c2ccc3c4c(nn3CCN(C)C)c3ccccc3n(c1=O)c24 .
active

I would be grateful if you could indicate the recorded call for O=[N+]([O-])c1cccc2nc3ccccc3c(NCCc3cccc[n+]3[O-])c12 .
active

* * *

Listing of entries alongside the reported GI50.
System: DMS-114
Assay: NCI tumour cell line growth inhibition, 48 h
Activity calls are given as the source filed them. Rule as the data show it: active = GI50 up to about 1.1 µM and inactive = higher.

Examples with their reported GI50 follow.
> print(dat)
                                   molecule       value.observed
1  CCOC(=O)C1C(=O)C(=O)N2CCc3c([nH]c4ccccc34)C12 (stereo not given)  > 100 µM (inactive)
2  CC1OC(OC2CCCc3c(O)c4c(c(O)c32)C(=O)c2ccccc2C4=O)CC(N)C1O (stereo not given)   1.69 µM (inactive)
3  Cc1c(C(=O)CSc2nc3cc([N+](=O)[O-])ccc3[nH]2)c(=O)n(-c2ccccc2)n1C  > 100 µM (inactive)
4             Cc1ccc(/C=C(\C#N)c2ccccc2)cc1  > 100 µM (inactive)

Give recorded GI50. CCOC(=O)N[C@@H]1C(CC(=O)OC)O[C@H]2OC(C)(C)O[C@H]21 (stereo not given in full)
> 100 µM (inactive)

* * *

System: SK-OV-3
Experiment: NCI tumour cell line growth inhibition, 48 h
Calls of active or inactive are those of the source. No stated cut-off is given here; in the data, active = GI50 up to about 1.1 µM and inactive = higher.
measured-property: GI50

Give recorded GI50. CCOC(=O)c1c[nH]c2c(ccc3ncccc32)c1=O
> 100 µM (inactive)

Give recorded GI50. O=C1/C(=C/c2ccccc2)CN(C(=O)/C=C/c2ccccc2)C/C1=C\c1ccccc1
27.7 µM (inactive)

Give recorded GI50. O=C(C#Cc1ccccc1)Nc1ccccc1CC(c1c[nH]c2ccccc12)c1c[nH]c2ccccc12
33.2 µM (inactive)

* * *

Test system: SW-620
Assay: NCI tumour cell line growth inhibition, 48 h
Calls of active or inactive are those of the source. No stated cut-off is given here; in the data, active = GI50 up to about 1.1 µM and inactive = higher.
Give your call using only these classes: active, inactive

# count of solved cases: 5
> print(dat)
                                   compound  classification
1  CC(O)C1(CNc2cc(Cl)nc(N)n2)CCC1 (centres undefined)        inactive
2  CCCCN(CCCC)CC(C(=O)Nc1ccc([N+](=O)[O-])cc1[N+](=O)[O-])/C(C)=N\NC(=S)NN (centres undefined)        inactive
3         CC1=[N+]([O-])C2(CCCC2)N(O)C1(C)C        inactive
4  Cc1ccc2nc(NC(=O)C(=O)CC(=O)c3cccc4ccccc34)sc2c1        inactive
5      O=C(O)c1cccc(F)c1C(=O)c1ccc2ccccc2c1        inactive

I would be grateful if you could indicate the recorded call for C/C=C(\C)C(=O)N1c2ccccc2CC1c1c(C)[nH]c2ccccc12 (centres undefined) .
inactive

I would be grateful if you could indicate the recorded call for C[C@]12CC[C@@H]3c4ccc(OS(N)(=O)=O)cc4CC[C@H]3[C@@H]1CCC2=O [EMATE] .
inactive

I would be grateful if you could indicate the recorded call for O=C1CSC(c2ccc(Cl)cc2)N1c1ccc(-n2c(-c3ccccc3)nc3ccccc3c2=O)cc1 (centres undefined) .
inactive

I would be grateful if you could indicate the recorded call for C/C(=N\NC(=S)N1CCCCCC1)c1ccccn1 .
active

I would be grateful if you could indicate the recorded call for O=C(O)CP(=O)(O)O .
inactive

* * *

Tested on: SR
Experiment: NCI tumour cell line growth inhibition, 48 h
Active and inactive are the calls of the source. Rule as the data show it: active = GI50 up to about 1.1 µM and inactive = higher.
Listing of entries alongside the reported GI50.

Examples with their reported GI50 follow.
> print(dat)
                                   compound       value.observed
1  Cc1cccc2c1CC(Cc1ccccc1C(=O)O)C2=O (stereo unspecified)  > 100 µM (inactive)
2  COc1cc2c(cc1OC)C1C=NC(C2)c2cc(OC)c(OC)cc21 (stereo unspecified)   69.3 µM (inactive)
3  O=C1CC2(C[C@@H]3CCCCCCCCC[C@@H](C3)C2)N1 (stereo partly specified)   10.8 µM (inactive)
4            CN1C2CC(=O)CC1[C@H](O)[C@@H]2O  > 100 µM (inactive)
5              Cc1nc2c(Cl)cc(Cl)cc2c2c1CCO2  > 100 µM (inactive)

Give recorded GI50. CN1C(=O)c2cccc3c([N+](=O)[O-])ccc(c23)C1=O
3.25 µM (inactive)

* * *

Test system: NCI/ADR-RES
Assay: NCI tumour cell line growth inhibition, 48 h
Active and inactive are the calls of the source. Rule as the data show it: active = GI50 up to about 1.1 µM and inactive = higher.
Give your call using only these classes: 1 for active, -1 for inactive

# count of solved cases: 5
compound	target-desc	classification
CCN(CC)CCOCC1CCCN2CCCCC12 (configuration not stated)	NCI/ADR-RES	-1
CC(C)C(/C=C/c1ccc(Cl)cc1)=N\NC(=O)N/N=C(/C=C/c1ccc(Cl)cc1)C(C)C	NCI/ADR-RES	-1
O=C(Nc1ccc(F)cc1)c1cc2ccc(O)cc2o/c1=N\c1cccc(F)c1	NCI/ADR-RES	-1
CN(C)c1ccc(Cc2cc3c(O)ccc(O)c3cc(Cc3ccc(N(C)C)cc3)c2=O)cc1	NCI/ADR-RES	-1
CC(C)(C)c1cc(C(=O)/C=C/c2ccc3c(c2)CCO3)cc(C(C)(C)C)c1O	NCI/ADR-RES	1

I would be grateful if you could indicate the recorded call for COc1ccc(C2(c3ccc(OC)cc3)OC(=O)c3cccc4cccc2c34)cc1 .
-1

I would be grateful if you could indicate the recorded call for Cc1ccc(C)n2c1nc1ccccc12 .
-1

I would be grateful if you could indicate the recorded call for COC1CC(COCc2ccccc2)CC(OC)O1 (configuration not stated) .
-1

I would be grateful if you could indicate the recorded call for CCOC(=O)c1sc2c(c1OC(=O)c1ccc(Cl)cc1Cl)c(=O)n(-c1ccccc1)c(=S)n2-c1ccccc1 .
-1

I would be grateful if you could indicate the recorded call for O=C(O)COc1cc(-c2ccccc2)nc2ccc(F)cc12 .
-1

I would be grateful if you could indicate the recorded call for Cc1ccc(C)c(NC(=O)/C(=N\N)C(c2cnc3ccc([N+](=O)[O-])cc3n2)[N+](=O)[O-])c1 (configuration not stated) .
-1

I would be grateful if you could indicate the recorded call for CCOC(=O)c1c(-c2ccc(O)c(OC)c2)c(C#N)c(=S)n(C2OC(COC(C)=O)C(OC(C)=O)C(OC(C)=O)C2OC(C)=O)c1-c1ccccc1 (configuration not stated) .
-1
